Data provenance is patent US9096591B2.

Biological target: human recombinant serotonin (5-Hydroxytryptamine) 5-HT6 receptor (Homo sapiens)
Construct: expressed in transfected cells; host or cells: human HeLa cells
Sequence (P50406 whole entry): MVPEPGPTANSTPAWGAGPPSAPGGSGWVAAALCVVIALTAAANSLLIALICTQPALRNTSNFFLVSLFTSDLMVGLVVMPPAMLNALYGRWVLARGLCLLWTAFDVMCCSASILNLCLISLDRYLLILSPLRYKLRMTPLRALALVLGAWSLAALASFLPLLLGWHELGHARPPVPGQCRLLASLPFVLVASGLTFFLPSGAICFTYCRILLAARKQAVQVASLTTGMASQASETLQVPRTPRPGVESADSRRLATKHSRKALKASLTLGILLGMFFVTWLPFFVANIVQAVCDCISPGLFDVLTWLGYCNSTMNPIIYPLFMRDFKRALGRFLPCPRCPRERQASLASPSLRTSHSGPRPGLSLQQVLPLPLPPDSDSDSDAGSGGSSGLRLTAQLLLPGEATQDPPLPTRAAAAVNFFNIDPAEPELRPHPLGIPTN
Assay: Serotonin 5-HT6 radioligand binding ([3H]LSD)
Conditions: compounds screened at 1 μM; read-out: Inhibition of ligand binding, Ser. 5-HT6 (percent inhibition of specific binding)
Text: Receptor proteins were filtered and washed, the filters were then counted to determine [3H]LSD specifically bound. […] Biochemical assay results are presented as the percent inhibition of specific binding in Table 6.
PROPERTY_MEASURED: inhibition at 1 µM (%)

sample_smiles=Cc1ccc(CCn2c3c(c4cc(Br)ccc42)CN(C)CC3)cn1 display_unit=% recorded_measurement=94
sample_smiles=CN1CCc2c(c3cc(Br)ccc3n2CC(=O)N2CCCCC2)C1 display_unit=% recorded_measurement=9
sample_smiles=CN1CCc2c(c3ncccc3n2CCc2ccncc2)C1 display_unit=% recorded_measurement=4
sample_smiles=CN1CCc2c(c3ccncc3n2CCc2ccncc2)C1 display_unit=% recorded_measurement=13
sample_smiles=COc1ccc2c(c1)c1c(n2CCc2nc(-c3ccccc3)cs2)CCN(C)C1 display_unit=% recorded_measurement=84
sample_smiles=CN1CCc2c(c3ncccc3n2CCc2ccccn2)C1 display_unit=% recorded_measurement=14
sample_smiles=CN1CCc2c(c3cc(F)ccc3n2CCc2nc(-c3ccccc3)cs2)C1 display_unit=% recorded_measurement=91
sample_smiles=Cc1ccc2c(c1)c1c(n2CCc2nc(-c3ccccc3)cs2)CCN(C)C1 display_unit=% recorded_measurement=101
sample_smiles=Cc1ccc2c(c1)c1c(n2CCc2noc(-c3ccccc3)n2)CCN(C)C1 display_unit=% recorded_measurement=103

---

target: human recombinant serotonin (5-Hydroxytryptamine) 5-HT2C receptor (Homo sapiens, UniProt P28335); construct: expressed in transfected cells; host or cells: CHO-K1 cells; assay: Serotonin 5-HT2C radioligand binding ([3H]Mesulergine); details: percent inhibition of specific binding
Sequence (P28335 33-458): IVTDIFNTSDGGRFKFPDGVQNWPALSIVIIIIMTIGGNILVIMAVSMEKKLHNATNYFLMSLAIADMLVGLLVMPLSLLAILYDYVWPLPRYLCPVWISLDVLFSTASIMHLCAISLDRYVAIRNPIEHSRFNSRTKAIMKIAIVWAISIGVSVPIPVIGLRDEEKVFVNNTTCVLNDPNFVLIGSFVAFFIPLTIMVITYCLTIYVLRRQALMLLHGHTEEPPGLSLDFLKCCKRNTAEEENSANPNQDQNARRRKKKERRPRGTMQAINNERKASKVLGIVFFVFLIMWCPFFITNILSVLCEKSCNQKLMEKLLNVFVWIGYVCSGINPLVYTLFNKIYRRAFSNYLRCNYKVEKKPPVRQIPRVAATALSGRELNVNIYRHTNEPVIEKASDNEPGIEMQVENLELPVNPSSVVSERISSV
// not fulfilled strictly below 60% in Inhibition of ligand binding, Ser. 5-HT2C; fulfilled otherwise

sample_smiles=CN1CCc2c(c3cc(F)ccc3n2CCc2ccc(F)cc2)C1 class_assignment=fulfilled
sample_smiles=Cc1ccc2c(c1)c1c(n2CCc2ccc(C(F)(F)F)nc2)CCN(C)C1 class_assignment=fulfilled
sample_smiles=CCc1ccc2c(c1)c1c(n2CCc2ccc(C(F)(F)F)nc2)CCN(C)C1 class_assignment=fulfilled
sample_smiles=CN1CCc2c(c3cc(I)ccc3n2CCc2ccccc2F)C1 class_assignment=fulfilled
sample_smiles=CN1CCc2c(c3cc(Cl)ccc3n2CCn2cccc2)C1 class_assignment=fulfilled
sample_smiles=Cc1ccc(CCn2c3c(c4cc(Cl)ccc42)CN(c2cccc(C(F)(F)F)c2)CC3)cn1 class_assignment="not fulfilled"
sample_smiles=CN1CCc2c(c3ccccc3n2CCc2ccccn2)C1 class_assignment="not fulfilled"
sample_smiles=Cc1ccc2c(c1)c1c(n2CCc2cnc(C)nc2)CCN(C)C1 class_assignment="not fulfilled"

---

The entries below are paired with their reported inhibition at 1 µM.
biological target: human recombinant histamine H1 receptor (Homo sapiens, UniProt P35367); construct: expressed in transfected cells; host or cells: CHO cells; experiment: Histamine H1 radioligand binding ([3H]Pyrilamine); conditions: percent inhibition of specific binding; screened at 1 μM; read-out: Inhibition of ligand binding, Hist. H1
Sequence (P35367 whole entry): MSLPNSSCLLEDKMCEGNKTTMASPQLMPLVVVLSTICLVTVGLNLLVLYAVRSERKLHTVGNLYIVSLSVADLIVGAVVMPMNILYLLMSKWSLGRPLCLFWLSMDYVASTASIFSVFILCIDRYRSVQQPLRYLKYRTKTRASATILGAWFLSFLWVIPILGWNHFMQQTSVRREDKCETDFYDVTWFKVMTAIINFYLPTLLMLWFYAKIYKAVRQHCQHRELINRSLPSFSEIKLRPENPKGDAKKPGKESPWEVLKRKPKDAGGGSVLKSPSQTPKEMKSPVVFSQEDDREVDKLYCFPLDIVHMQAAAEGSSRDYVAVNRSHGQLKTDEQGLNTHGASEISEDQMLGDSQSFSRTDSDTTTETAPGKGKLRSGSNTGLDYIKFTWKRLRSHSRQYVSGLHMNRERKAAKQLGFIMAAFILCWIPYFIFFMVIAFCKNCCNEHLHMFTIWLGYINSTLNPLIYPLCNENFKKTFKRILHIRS
PROPERTY_MEASURED: inhibition at 1 µM (%)

compound="Cc1ccc2c(c1)c1c(n2CC(=O)N2CCCC(C)C2)CCN(C)C1 (stereo not shown)" tested_target="human recombinant histamine H1 receptor (Homo sapiens, UniProt P35367)" property_measured="inhibition at 1 µM" recorded_measurement=36
compound="Cc1ccc2c(c1)c1c(n2CCc2ccc(C)nc2)C(Br)C(=O)N(C)C1 (stereo not shown)" tested_target="human recombinant histamine H1 receptor (Homo sapiens, UniProt P35367)" property_measured="inhibition at 1 µM" recorded_measurement=-6
compound=CCCc1ccc(CCn2c3c(c4cc(Cl)ccc42)CN(C)CC3)cn1 tested_target="human recombinant histamine H1 receptor (Homo sapiens, UniProt P35367)" property_measured="inhibition at 1 µM" recorded_measurement=98
compound=Cc1ccc(CCn2c3c(c4cc(C)ccc42)CN(C)CC3)cc1 tested_target="human recombinant histamine H1 receptor (Homo sapiens, UniProt P35367)" property_measured="inhibition at 1 µM" recorded_measurement=97
compound=Cc1ccc2c(c1)c1c(n2CCc2ccc(C)nc2)CCNC1 tested_target="human recombinant histamine H1 receptor (Homo sapiens, UniProt P35367)" property_measured="inhibition at 1 µM" recorded_measurement=93
compound=CN1CCc2c(c3cc(Cl)ccc3n2CCC2CCCCC2)C1 tested_target="human recombinant histamine H1 receptor (Homo sapiens, UniProt P35367)" property_measured="inhibition at 1 µM" recorded_measurement=101
compound=CCN1CCc2c(c3cc(C)ccc3n2Cc2ccc(C)nc2)C1 tested_target="human recombinant histamine H1 receptor (Homo sapiens, UniProt P35367)" property_measured="inhibition at 1 µM" recorded_measurement=68
compound=Cc1ccc2c(c1)c1c(n2CC(=O)N2CCOCC2)CCN(C)C1 tested_target="human recombinant histamine H1 receptor (Homo sapiens, UniProt P35367)" property_measured="inhibition at 1 µM" recorded_measurement=8
compound=CCOC(=O)N1CCc2c(c3cc(Br)ccc3n2CCc2ccc(C)nc2)C1 tested_target="human recombinant histamine H1 receptor (Homo sapiens, UniProt P35367)" property_measured="inhibition at 1 µM" recorded_measurement=-14
compound=Cc1ccc(CCn2c3c(c4cc(CO)ccc42)CN(C)CC3)cn1 tested_target="human recombinant histamine H1 receptor (Homo sapiens, UniProt P35367)" property_measured="inhibition at 1 µM" recorded_measurement=95
compound=CN1CCN(CCn2c3c(c4cc(Cl)ccc42)CN(C)CC3)CC1 tested_target="human recombinant histamine H1 receptor (Homo sapiens, UniProt P35367)" property_measured="inhibition at 1 µM" recorded_measurement=10
compound=CCc1ccc2c(c1)c1c(n2CCc2ccc(C(F)(F)F)nc2)CCN(C)C1 tested_target="human recombinant histamine H1 receptor (Homo sapiens, UniProt P35367)" property_measured="inhibition at 1 µM" recorded_measurement=94
compound=Cc1ccc(CCn2c3c(c4cc(Cl)ccc42)CN(C)CC3)cc1 tested_target="human recombinant histamine H1 receptor (Homo sapiens, UniProt P35367)" property_measured="inhibition at 1 µM" recorded_measurement=110
compound=CC1CCN(C(=O)Cn2c3c(c4cc(Cl)ccc42)CN(C)CC3)CC1 tested_target="human recombinant histamine H1 receptor (Homo sapiens, UniProt P35367)" property_measured="inhibition at 1 µM" recorded_measurement=77
compound=Cc1ccc2c(c1)c1c(n2CCc2ccccc2)CCN(C)C1 tested_target="human recombinant histamine H1 receptor (Homo sapiens, UniProt P35367)" property_measured="inhibition at 1 µM" recorded_measurement=97
compound=CN1CCc2c(c3cc(Cl)ccc3n2CCN2CCOCC2)C1 tested_target="human recombinant histamine H1 receptor (Homo sapiens, UniProt P35367)" property_measured="inhibition at 1 µM" recorded_measurement=97
compound=Cc1ncc(CCn2c3c(c4cc(C(C)C)ccc42)CN(C)CC3)cn1 tested_target="human recombinant histamine H1 receptor (Homo sapiens, UniProt P35367)" property_measured="inhibition at 1 µM" recorded_measurement=85
compound=Cc1ccc2c(c1)c1c(n2CCC(=O)N2CCC(NC(=O)OC(C)(C)C)CC2)CCN(C)C1 tested_target="human recombinant histamine H1 receptor (Homo sapiens, UniProt P35367)" property_measured="inhibition at 1 µM" recorded_measurement=28
compound=CN1CCc2c(c3cc(Cl)ccc3n2CCc2cncnc2)C1 tested_target="human recombinant histamine H1 receptor (Homo sapiens, UniProt P35367)" property_measured="inhibition at 1 µM" recorded_measurement=104

---

target: human recombinant dopamine D2L receptor (Homo sapiens); construct: expressed in transfected cells; host or cells: CHO cells; assay: Dopamine D2L radioligand binding ([3H]Spiperone); details: percent inhibition of specific binding
Sequence (P14416 whole entry): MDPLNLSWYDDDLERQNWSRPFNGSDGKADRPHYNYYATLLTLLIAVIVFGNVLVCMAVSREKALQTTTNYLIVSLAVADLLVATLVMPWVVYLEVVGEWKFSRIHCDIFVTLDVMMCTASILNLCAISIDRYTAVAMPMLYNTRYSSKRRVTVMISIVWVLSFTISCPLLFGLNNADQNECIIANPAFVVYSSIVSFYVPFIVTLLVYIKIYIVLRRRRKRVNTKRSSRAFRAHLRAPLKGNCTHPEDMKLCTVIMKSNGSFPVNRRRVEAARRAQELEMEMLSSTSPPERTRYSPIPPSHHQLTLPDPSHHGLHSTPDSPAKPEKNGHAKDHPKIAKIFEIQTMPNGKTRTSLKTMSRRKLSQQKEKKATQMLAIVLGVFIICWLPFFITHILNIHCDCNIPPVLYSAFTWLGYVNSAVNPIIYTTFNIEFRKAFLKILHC
PROPERTY_MEASURED: Inhibition of ligand binding, Dop. D2L (%)

compound="CN1CCc2c(c3cc(Cl)ccc3n2CC(=O)N2CC[S+]([O-])CC2)C1 [Compound 296]" recorded_measurement=3
compound="Cc1ccc2c(c1)c1c(n2CCc2ccc(C)nc2)CCN(C)C1 [Dimebon, dimebon, reference compound]" recorded_measurement=41
compound="Cc1ccc2c(c1)c1c(n2CCc2cncnc2)CCN(C)C1 [Compound 387]" recorded_measurement=1
compound="CCOc1ccc(CCn2c3c(c4cc(C)ccc42)CN(C)CC3)cc1 [Compound 334]" recorded_measurement=76
compound="CN1CCc2c(c3cc(Cl)c(F)cc3n2CCc2ccc(C(F)(F)F)nc2)C1 [Compound 343]" recorded_measurement=−7
compound="Cc1ccc(CCn2c3c(c4cc(CO)ccc42)CN(C)CC3)cn1 [Compound 263]" recorded_measurement=−4
compound="CN1CCc2c(c3cc(Cl)ccc3n2CC(=O)N2CCCC2)C1 [Compound 243]" recorded_measurement=8
compound="CC1CN(C(=O)Cn2c3c(c4cc(Cl)ccc42)CN(C)CC3)CC(C)N1 (stereo not drawn) [Compound 245]" recorded_measurement=4
compound="CCOC(=O)N1CCc2c(c3cc(-c4cccnc4)ccc3n2CCc2ccc(C)nc2)C1 [Compound 19]" recorded_measurement=−5
